meta.source: patent US20230002496A1

Biological target: T1, human GM-CSFRα, full length on cells (human, UniProt P15509 23-400)
T1 sequence: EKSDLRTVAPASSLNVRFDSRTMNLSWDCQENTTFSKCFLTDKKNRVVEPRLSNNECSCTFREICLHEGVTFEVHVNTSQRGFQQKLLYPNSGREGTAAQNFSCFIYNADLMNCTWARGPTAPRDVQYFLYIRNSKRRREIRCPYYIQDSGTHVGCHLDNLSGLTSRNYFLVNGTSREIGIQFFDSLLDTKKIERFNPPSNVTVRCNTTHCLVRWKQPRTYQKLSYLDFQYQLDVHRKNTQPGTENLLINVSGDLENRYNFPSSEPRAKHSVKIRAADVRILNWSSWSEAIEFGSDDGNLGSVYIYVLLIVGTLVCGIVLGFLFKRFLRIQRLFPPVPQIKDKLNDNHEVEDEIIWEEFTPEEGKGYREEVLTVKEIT
Test: cell-based or functional assay
Note to self: use fulfilled only for IC50, TF-1 cell proliferation readings below 0.2 µg/mL; a reading exactly at 0.2 µg/mL still gets not fulfilled.

>>> label_class("E35-scFv HT30W (scFv, V domains shown) VH: QMQLVQSGAEVKKPGASVKVSCKVSGYTLWELSIHWVRQAPGKGLEWMGGFDPEDGETIYAQKFQGRVTMTGDTSTDTAYLELSSLRSEDTALYYCATGRYTSLATTYGFDYWGQGTLVTVSS VL: EIVMTQSPATLSLSPGERATLSCRASQSVSSYLAWYQQKPGQAPRLLIYGASSRATGIPDRFSGSGSGTDFTLTISRLEPEDFAVYYCQQYDNWPYTFGQGTKLEIK")
"fulfilled"
>>> label_class("E35-scFv LS31M (scFv, V domains shown) VH: QMQLVQSGAEVKKPGASVKVSCKVSGYTLTELSIHWVRQAPGKGLEWMGGFDPEDGETIYAQKFQGRVTMTGDTSTDTAYLELSSLRSEDTALYYCATGRYTSLATTYGFDYWGQGTLVTVSS VL: EIVMTQSPATLSLSPGERATLSCRASQSVSMYLAWYQQKPGQAPRLLIYGASSRATGIPDRFSGSGSGTDFTLTISRLEPEDFAVYYCQQYDNWPYTFGQGTKLEIK")
"fulfilled"
>>> label_class("E35-scFv LN93A (scFv, V domains shown) VH: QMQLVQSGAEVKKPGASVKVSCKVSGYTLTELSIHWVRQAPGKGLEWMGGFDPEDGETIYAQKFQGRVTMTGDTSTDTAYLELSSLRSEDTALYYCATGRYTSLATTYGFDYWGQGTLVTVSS VL: EIVMTQSPATLSLSPGERATLSCRASQSVSSYLAWYQQKPGQAPRLLIYGASSRATGIPDRFSGSGSGTDFTLTISRLEPEDFAVYYCQQYDAWPYTFGQGTKLEIK")
"not fulfilled"
>>> label_class("E35-scFv LY32T (scFv, V domains shown) VH: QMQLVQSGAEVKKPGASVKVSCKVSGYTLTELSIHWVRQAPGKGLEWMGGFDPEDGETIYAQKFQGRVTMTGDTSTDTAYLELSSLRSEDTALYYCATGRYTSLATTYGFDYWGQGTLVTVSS VL: EIVMTQSPATLSLSPGERATLSCRASQSVSSTLAWYQQKPGQAPRLLIYGASSRATGIPDRFSGSGSGTDFTLTISRLEPEDFAVYYCQQYDNWPYTFGQGTKLEIK")
"not fulfilled"
>>> label_class("E35-scFv LS28P (scFv, V domains shown) VH: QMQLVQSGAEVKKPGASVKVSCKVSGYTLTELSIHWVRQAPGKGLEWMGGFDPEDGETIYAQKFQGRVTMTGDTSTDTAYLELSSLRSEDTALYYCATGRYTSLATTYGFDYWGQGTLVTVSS VL: EIVMTQSPATLSLSPGERATLSCRASQPVSSYLAWYQQKPGQAPRLLIYGASSRATGIPDRFSGSGSGTDFTLTISRLEPEDFAVYYCQQYDNWPYTFGQGTKLEIK")
"fulfilled"
